- assay info: Single-dose PK and bioavailability of ZB716 in rats
- Type: in vivo
- settings: female, Sprague Dawley, rat, plasma; single dose, IV 2 mg/kg/day, F
measured attribute: Cmax (ng/mL)
Respond numerically; units are ng/mL and should not be typed.

In: Dear colleague, I am looking for the recorded Cmax of the following molecule: C[C@]12CC[C@@H]3c4ccc(B(O)O)cc4C[C@@H](CCCCCCCCC[S+]([O-])CCCC(F)(F)C(F)(F)F)[C@H]3[C@@H]1CC[C@@H]2O (stereo partly shown)
Out: 4530

* * *

- assay info: 4-week repeat-dose toxicity/TK study in dogs
- Assay type: in vivo, beagle dogs
- settings: male, beagle, dog, plasma, po, 100 mg/kg/day, day 28, PO 100 mg/kg/day, M
measured attribute: Tmax (h)
Respond numerically; units are h and should not be typed.

In: Dear colleague, I am looking for the recorded Tmax of the following compound: C[C@]12CC[C@@H]3c4ccc(B(O)O)cc4C[C@@H](CCCCCCCCC[S+]([O-])CCCC(F)(F)C(F)(F)F)[C@H]3[C@@H]1CC[C@@H]2O (stereo partly shown)
Out: 2

* * *

- assay info: Single-dose PK and bioavailability in dogs
- Type: in vivo
- settings: male, beagle, dog, plasma; single dose, PO 30 mg/kg/day, M
- Experimental: […] […] All groups had one male and one female animal. Plasma samples were collected at various timepoints, through to 24 h post-dose, and analyzed for ZB716. […] The stock solution of ZB716 (5.0 mg/mL) and ZB716-d6 (1 mg/mL) in ACN:DI Water = 1:1 was prepared and stored at −20 ± 5 °C. […] This method is applicable for the determination of ZB716 in Sprague Dawley rat plasma and beagle dog plasma, with a lower limit of quantification of 20.0 ng/mL, and an upper limit of quantification of 10,000 ng/mL. […]
measured attribute: AUC(0-t) (ng·h/mL)
Respond numerically; units are ng·h/mL and should not be typed.

In: Dear colleague, I am looking for the recorded AUC(0-t) of the following compound: C[C@]12CC[C@@H]3c4ccc(B(O)O)cc4C[C@@H](CCCCCCCCC[S+]([O-])CCCC(F)(F)C(F)(F)F)[C@H]3[C@@H]1CC[C@@H]2O (stereo partly shown) [ZB716, fulvestrant-3-boronic acid]
Out: 5520

* * *

- assay info: Plasma protein binding by equilibrium dialysis, rat
- Assay type: in vitro ADME
- settings: plasma (EDTA-K2 as anticoagulant), pH 7.4, 0.1 μM
measured attribute: recovery at 6 h, 0.1 μM

In: Dear colleague, I am looking for the recorded recovery at 6 h, 0.1 μM of the following molecule: C[C@]12CC[C@@H]3c4ccc(B(O)O)cc4C[C@@H](CCCCCCCCC[S+]([O-])CCCC(F)(F)C(F)(F)F)[C@H]3[C@@H]1CC[C@@H]2O (stereo partly shown)
Out: < 94.4%

* * *

- Tested on: CYP1A2
- assay info: CYP induction (enzyme activity) in cryopreserved human hepatocytes, CYP1A2
- settings: human, plated cryopreserved human hepatocytes, Fold Induction, donor two, 50 µM
measured attribute: fold induction at 72 h, 50 µM
Respond with the number and no other words.

In: Dear colleague, I am looking for the recorded fold induction at 72 h, 50 µM of the following compound: COc1ccc2[nH]c([S+]([O-])Cc3ncc(C)c(OC)c3C)nc2c1 (stereo not shown) [Omeprazole, omeprazole, reference compound]
Out: 15

* * *

- assay info: Plasma protein binding by equilibrium dialysis, mouse
- Type: in vitro ADME
- settings: plasma (EDTA-K2 as anticoagulant), pH 7.4, 1 μM
measured attribute: recovery at 6 h, 1 μM

In: Dear colleague, I am looking for the recorded recovery at 6 h, 1 μM of the following compound: C[C@]12CC[C@@H]3c4ccc(B(O)O)cc4C[C@@H](CCCCCCCCC[S+]([O-])CCCC(F)(F)C(F)(F)F)[C@H]3[C@@H]1CC[C@@H]2O (stereo partly shown)
Out: < 88.8%

* * *

- assay info: 4-week repeat-dose toxicity/TK study in rats
- Format: in vivo, Sprague Dawley rats
- settings: male, Sprague Dawley (Crl: CD (SD)), rat, plasma, po, 100 mg/kg/day, day 1, PO 100 mg/kg/day, Male
measured attribute: AUC(0-t) (µg·h/mL)
Respond numerically; units are µg·h/mL and should not be typed.

In: Dear colleague, I am looking for the recorded AUC(0-t) of the following compound: C[C@]12CC[C@@H]3c4ccc(B(O)O)cc4C[C@@H](CCCCCCCCC[S+]([O-])CCCC(F)(F)C(F)(F)F)[C@H]3[C@@H]1CC[C@@H]2O (stereo partly shown)
Out: 15.7

* * *

- assay info: Single-dose PK and bioavailability of ZB716 in rats
- Format: in vivo
- settings: male, Sprague Dawley, rat, plasma; single dose, PO 30 mg/kg/day, M
measured attribute: AUC(0-t) (ng·h/mL)
Respond numerically; units are ng·h/mL and should not be typed.

In: Dear colleague, I am looking for the recorded AUC(0-t) of the following compound: C[C@]12CC[C@@H]3c4ccc(B(O)O)cc4C[C@@H](CCCCCCCCC[S+]([O-])CCCC(F)(F)C(F)(F)F)[C@H]3[C@@H]1CC[C@@H]2O (stereo partly shown)
Out: 5410

* * *

- assay info: Metabolic stability in monkey hepatocytes
- Type: in vitro ADME
- settings: read-out: Scaled-Up Clint
measured attribute: CLint scaled at 1 μM (mL/min/kg)
Respond numerically; units are mL/min/kg and should not be typed.

In: Dear colleague, I am looking for the recorded CLint scaled at 1 μM of the following molecule: C[C@]12CC[C@@H]3c4ccc(B(O)O)cc4C[C@@H](CCCCCCCCC[S+]([O-])CCCC(F)(F)C(F)(F)F)[C@H]3[C@@H]1CC[C@@H]2O (stereo partly shown)
Out: 181

* * *

- assay info: 7-day repeated-dose PK in rats
- Type: in vivo, Sprague Dawley rats
- settings: male, Sprague Dawley (Crl: CD (SD)), rat, plasma, po, 400 mg/kg/day, day 1, PO 400 mg/kg/day, M
measured attribute: AUC(0-t)

In: Dear colleague, I am looking for the recorded AUC(0-t) of the following molecule: C[C@]12CC[C@@H]3c4ccc(B(O)O)cc4C[C@@H](CCCCCCCCC[S+]([O-])CCCC(F)(F)C(F)(F)F)[C@H]3[C@@H]1CC[C@@H]2O (stereo partly shown)
Out: 15200 ng·h/mL

* * *

- tested on: CYP2D6 (Homo sapiens, UniProt P10635)
- Sequence (P10635 whole entry): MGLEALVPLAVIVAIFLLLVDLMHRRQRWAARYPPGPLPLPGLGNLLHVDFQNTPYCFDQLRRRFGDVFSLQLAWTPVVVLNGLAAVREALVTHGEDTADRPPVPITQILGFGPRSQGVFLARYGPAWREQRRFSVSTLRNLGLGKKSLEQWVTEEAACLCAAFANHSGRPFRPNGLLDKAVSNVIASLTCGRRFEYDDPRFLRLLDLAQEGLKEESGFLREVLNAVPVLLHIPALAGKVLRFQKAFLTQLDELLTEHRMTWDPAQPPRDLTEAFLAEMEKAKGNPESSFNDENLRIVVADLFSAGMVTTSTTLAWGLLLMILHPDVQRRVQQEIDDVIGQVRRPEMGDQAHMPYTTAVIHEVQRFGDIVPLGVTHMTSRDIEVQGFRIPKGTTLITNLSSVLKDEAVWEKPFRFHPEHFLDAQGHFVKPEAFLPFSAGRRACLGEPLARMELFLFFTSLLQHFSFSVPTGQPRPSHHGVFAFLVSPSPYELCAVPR
- assay info: CYP phenotyping, recombinant CYP2D6
- settings: human
measured attribute: half-life at 2 µM (min)
Respond numerically; units are min and should not be typed.

In: Hello, I am looking for reported half-life at 2 µM with CYP2D6 (Homo sapiens, UniProt P10635) for C[C@]12CC[C@@H]3c4ccc(B(O)O)cc4C[C@@H](CCCCCCCCC[S+]([O-])CCCC(F)(F)C(F)(F)F)[C@H]3[C@@H]1CC[C@@H]2O (stereo partly shown) . Could you help?
Out: 18.3

* * *

- assay info: Single-dose PK and bioavailability in dogs
- Type: in vivo
- settings: female, beagle, dog, plasma; single dose, PO 30 mg/kg/day, F
measured attribute: Cmax

In: Dear colleague, I am looking for the recorded Cmax of the following compound: C[C@]12CC[C@@H]3c4ccc(B(O)O)cc4C[C@@H](CCCCCCCCC[S+]([O-])CCCC(F)(F)C(F)(F)F)[C@H]3[C@@H]1CC[C@@H]2O (stereo partly shown)
Out: 964 ng/mL

* * *

- assay info: Plasma protein binding by equilibrium dialysis, monkey
- Type: in vitro ADME
- settings: plasma (EDTA-K2 as anticoagulant), pH 7.4, 0.1 μM
measured attribute: recovery at 6 h, 0.1 μM

In: Dear colleague, I am looking for the recorded recovery at 6 h, 0.1 μM of the following compound: C[C@]12CC[C@@H]3c4ccc(B(O)O)cc4C[C@@H](CCCCCCCCC[S+]([O-])CCCC(F)(F)C(F)(F)F)[C@H]3[C@@H]1CC[C@@H]2O (stereo partly shown) [ZB716, fulvestrant-3-boronic acid]
Out: < 68.2%

* * *

- assay info: 4-week repeat-dose toxicity/TK study in rats
- Type: in vivo, Sprague Dawley rats
- settings: female, Sprague Dawley (Crl: CD (SD)), rat, plasma, po, 400 mg/kg/day, day 1, PO 400 mg/kg/day, Female
measured attribute: Tmax
Please provide the amount together with its unit, number first.

In: Dear colleague, I am looking for the recorded Tmax of the following compound: C[C@]12CC[C@@H]3c4ccc(B(O)O)cc4C[C@@H](CCCCCCCCC[S+]([O-])CCCC(F)(F)C(F)(F)F)[C@H]3[C@@H]1CC[C@@H]2O (stereo partly shown)
Out: 2 h

* * *

- Test system: CYP2B6
- assay info: CYP induction (enzyme activity) in cryopreserved human hepatocytes, CYP2B6
- settings: human, plated cryopreserved human hepatocytes, Fold Induction, donor two, 1.5 µM
measured attribute: fold induction at 72 h, 1.5 µM
Respond with the number and no other words.

In: Dear colleague, I am looking for the recorded fold induction at 72 h, 1.5 µM of the following compound: C[C@]12CC[C@@H]3c4ccc(B(O)O)cc4C[C@@H](CCCCCCCCC[S+]([O-])CCCC(F)(F)C(F)(F)F)[C@H]3[C@@H]1CC[C@@H]2O (stereo partly shown) [ZB716, fulvestrant-3-boronic acid]
Out: 2.16

Taken from paper PMC8400955.
